Where these numbers come from: patent US20070117743A1

System: LoVo
Experiment: SRB colorimetric assay of cell growth and viability, LoVo
Format: cell-based, human
Conditions: 48 hours exposure, SRB
Description: The finality of this assay is to interrupt the growth of a “in vitro” tumor cell culture by means a continued exhibition of the cells to the sample to be testing. […] Cells are seeded in 96 well microtiter plates, at 5×10^3 cells per well in aliquots of 195 μL medium, and they are allowed to attach to the plate surface by growing in drug free medium for 18 hours. […] Optical densities are read on a automated spectrophotometric plate reader at a single wavelength of 490 nm. […]
Where a SMILES comes first, the peptide text is derived from it. Bridges are numbered along the chain shown (N, C = ends). [ ]: non-standard residue; d: D form. The star is where a group is joined. d(aIle) = CC[C@H](C)[C@@H](N)C(=O)O; d(aThr) = C[C@@H](O)[C@@H](N)C(=O)O; Hexanoyl(5-Me) = CC(C)CCCC(=O)*; Orn = NCCC[C@H](N)C(=O)O; Dhb = C/C=C(\N)C(=O)O
Would you mind telling me the reported TGI LOVO of each entry?
All answers are understood in Molar, so give the number only.

Item: C/C=C1\NC(=O)[C@H](Cc2ccccc2)NC(=O)[C@@H](C(C)C)NC(=O)[C@@H]([C@@H](C)CC)NC(=O)[C@H](NC(=O)[C@H](NC(=O)[C@H](CCCN)NC(=O)[C@H]2CCCN2C(=O)[C@H](NC(=O)[C@@H](NC(=O)[C@H](CCC(N)=O)NC(=O)CCCC(C)C)C(C)C)C(C)C)[C@@H](C)CC)[C@@H](C)OC(=O)[C@H](C(C)C)NC1=O [Compound 58, [Gln^12, noD-Val^13]-KF] ({Hexanoyl(5-Me)}-QV[dV][dP][Orn][d(aIle)][d(aThr)][d(aIle)][dV]F[Dhb]V; ester 7-C) | System: LoVo | TGI LOVO: 7.11E−06

Item: C/C=C1\NC(=O)[C@H](Cc2ccc([N+](=O)[O-])cc2)NC(=O)[C@@H](C(C)C)NC(=O)[C@@H]([C@@H](C)CC)NC(=O)[C@H](NC(=O)[C@H](NC(=O)[C@H](CCCN)NC(=O)[C@H]2CCCN2C(=O)[C@H](NC(=O)[C@@H](NC(=O)[C@@H](NC(=O)[C@H](NC(=O)CC[C@@H](C)CC)C(C)C)[C@@H](C)O)C(C)C)C(C)C)[C@@H](C)CC)[C@@H](C)OC(=O)[C@H](C(C)C)NC1=O [Compound 73, [Phe(4-NO2)^3, (4S)-MeHex^14]-KF] | System: LoVo | TGI LOVO: 2.04E−07

Item: C/C=C1\NC(=O)[C@H](Cc2ccccc2)NC(=O)[C@@H](C(C)C)NC(=O)[C@@H]([C@@H](C)CC)NC(=O)[C@H](NC(=O)[C@H](NC(=O)[C@H](CCCNC(=O)C(F)(F)F)NC(=O)[C@H]2CCCN2C(=O)[C@H](NC(=O)[C@@H](NC(=O)[C@@H](NC(=O)[C@H](NC(=O)CC[C@@H](C)CC)C(C)C)[C@@H](C)O)C(C)C)C(C)C)[C@@H](C)CC)[C@@H](C)OC(=O)[C@H](C(C)C)NC1=O [Compound 96] | System: LoVo | TGI LOVO: 2.64E−07
